# TARGET DESC: IGF1R (Homo sapiens)
# Sequence (P08069 31-1367): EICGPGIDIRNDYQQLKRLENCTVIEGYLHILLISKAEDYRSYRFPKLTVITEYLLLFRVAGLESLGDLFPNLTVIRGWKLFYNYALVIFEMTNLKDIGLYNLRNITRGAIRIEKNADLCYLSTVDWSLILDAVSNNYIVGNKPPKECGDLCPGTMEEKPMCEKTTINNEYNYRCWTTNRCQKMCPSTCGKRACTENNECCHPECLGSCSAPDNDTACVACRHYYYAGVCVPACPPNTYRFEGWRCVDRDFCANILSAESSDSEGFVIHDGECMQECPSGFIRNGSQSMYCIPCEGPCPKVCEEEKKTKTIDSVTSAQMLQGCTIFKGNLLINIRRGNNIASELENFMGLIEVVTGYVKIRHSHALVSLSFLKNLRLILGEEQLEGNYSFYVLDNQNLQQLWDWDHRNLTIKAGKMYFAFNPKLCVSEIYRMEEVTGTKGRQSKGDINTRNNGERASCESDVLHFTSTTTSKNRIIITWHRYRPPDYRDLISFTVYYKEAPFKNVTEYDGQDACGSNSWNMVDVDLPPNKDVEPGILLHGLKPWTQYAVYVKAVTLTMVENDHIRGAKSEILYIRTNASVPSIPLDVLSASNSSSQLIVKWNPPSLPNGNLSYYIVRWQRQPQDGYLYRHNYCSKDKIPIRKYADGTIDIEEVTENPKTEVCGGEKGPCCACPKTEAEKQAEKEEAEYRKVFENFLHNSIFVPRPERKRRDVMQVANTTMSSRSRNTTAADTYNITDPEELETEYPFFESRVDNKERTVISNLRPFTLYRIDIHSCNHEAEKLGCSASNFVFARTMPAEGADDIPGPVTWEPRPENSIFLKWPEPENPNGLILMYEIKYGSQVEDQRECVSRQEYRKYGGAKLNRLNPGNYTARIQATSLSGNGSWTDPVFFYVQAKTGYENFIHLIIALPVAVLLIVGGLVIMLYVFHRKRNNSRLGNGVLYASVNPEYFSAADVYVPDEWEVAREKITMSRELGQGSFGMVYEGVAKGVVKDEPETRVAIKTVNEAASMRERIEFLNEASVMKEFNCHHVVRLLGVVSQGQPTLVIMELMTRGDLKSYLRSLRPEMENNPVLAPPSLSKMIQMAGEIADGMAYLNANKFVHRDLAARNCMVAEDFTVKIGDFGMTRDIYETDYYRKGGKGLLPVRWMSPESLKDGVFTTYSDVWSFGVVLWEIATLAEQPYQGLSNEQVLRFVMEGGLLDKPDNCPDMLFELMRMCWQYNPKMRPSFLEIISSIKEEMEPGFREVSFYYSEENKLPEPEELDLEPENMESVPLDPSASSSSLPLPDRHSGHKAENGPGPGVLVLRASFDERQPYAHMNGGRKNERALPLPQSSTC
# ASSAY TEXT: Cellular IGF-1R assay: inhibition of IGF1R phosphorylation in transduced Hek293 cells, capture ELISA (MSD)
# Format: cell-based
# Set-up: Hek293 cells transduced with the corresponding receptors; expressed in transfected cells; host or cells: Hek293 (Hek293-IGF1R)
MEASUREMENT LABEL: IC50 (nM)

COMPOUND: Nc1ncnc2c1c(-c1ccc3c(c1)OC(c1ccccc1)CC3)cn2[C@H]1C[C@@H](CN2CCNC(=O)C2)C1 (mixture of isomers)
TARGET DESC: IGF1R (Homo sapiens)
MEASUREMENT LABEL: IC50
ENDPOINT VALUE: 34
--
COMPOUND: NC[C@H]1C[C@@H](n2cc(-c3ccc4c(c3)OC(c3ccccc3)CC4)c3c(N)ncnc32)C1 (mixture of isomers)
TARGET DESC: IGF1R (Homo sapiens)
MEASUREMENT LABEL: IC50
ENDPOINT VALUE: 39

1 = Nc1ncnc2c1c(-c1ccc3c(c1)OC(c1ccccc1)CC3)cn2[C@H]1C[C@](O)(CO)C1 (mixture of isomers)
2 = NC(=O)[C@@H]1CCCN1C[C@H]1C[C@@H](c2nc(-c3ccc4c(c3)OC(c3ccccc3)CC4)c3c(N)nccn32)C1 (mixture of isomers)
Input: For 1 and 2 , which recorded IC50 is lower? API: response body contains the label of the selected item.
Output: 1
(1: 158 nM, 2: 346 nM)

* * *

# TARGET DESC: UniProt P10721
# Sequence (P10721 26-976): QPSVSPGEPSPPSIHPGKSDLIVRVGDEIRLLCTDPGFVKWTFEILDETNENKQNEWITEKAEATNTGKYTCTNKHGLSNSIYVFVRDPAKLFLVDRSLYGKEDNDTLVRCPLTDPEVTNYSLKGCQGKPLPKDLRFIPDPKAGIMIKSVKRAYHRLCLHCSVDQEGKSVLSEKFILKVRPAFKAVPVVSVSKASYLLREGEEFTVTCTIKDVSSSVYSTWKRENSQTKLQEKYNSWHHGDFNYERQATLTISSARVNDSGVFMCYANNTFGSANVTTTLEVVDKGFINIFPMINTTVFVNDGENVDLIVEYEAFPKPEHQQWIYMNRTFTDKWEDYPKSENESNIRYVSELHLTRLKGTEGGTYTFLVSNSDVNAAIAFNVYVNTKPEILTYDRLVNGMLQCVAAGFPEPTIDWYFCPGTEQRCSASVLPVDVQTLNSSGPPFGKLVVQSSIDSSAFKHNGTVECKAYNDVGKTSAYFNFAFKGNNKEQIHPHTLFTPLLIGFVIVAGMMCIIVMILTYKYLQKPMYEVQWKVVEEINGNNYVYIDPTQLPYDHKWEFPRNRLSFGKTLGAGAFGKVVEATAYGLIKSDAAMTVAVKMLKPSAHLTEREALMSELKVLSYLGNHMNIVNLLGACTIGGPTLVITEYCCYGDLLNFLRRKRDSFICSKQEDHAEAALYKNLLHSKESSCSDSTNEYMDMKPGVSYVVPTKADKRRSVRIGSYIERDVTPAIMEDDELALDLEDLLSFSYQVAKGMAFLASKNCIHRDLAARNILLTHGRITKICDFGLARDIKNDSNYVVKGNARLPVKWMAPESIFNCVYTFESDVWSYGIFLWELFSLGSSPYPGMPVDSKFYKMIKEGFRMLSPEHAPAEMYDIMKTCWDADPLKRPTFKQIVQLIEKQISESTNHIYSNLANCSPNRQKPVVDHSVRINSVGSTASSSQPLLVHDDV
# ASSAY TEXT: Enzymatic kinase assay (filter-binding / flashplate, 33P incorporation)
# Format: biochemical
# MEASUREMENT SETUP: enzymatic kinase selectivity
MEASUREMENT LABEL: IC50 (nM)

A = CC(=O)NC[C@H]1C[C@@H](n2cc(-c3ccc4c(c3)OC(c3ccccc3)CC4)c3c(N)ncnc32)C1 (mixture of isomers)
B = Nc1ncnc2c1c(-c1ccc3c(c1)OC(c1ccccc1)C=C3)cn2[C@H]1C[C@@H](CN2CCS(=O)(=O)CC2)C1 (mixture of isomers)
C = CC(=O)N1CCN([C@H]2C[C@@H](n3cc(-c4ccc5c(c4)OC(c4ccccc4)CC5)c4c(N)ncnc43)C2)CC1 (relative stereo)
Input: Order the items by recorded IC50; the first position goes to the largest value. Response format: the labels, sorted as the prompt asks.
Output: C, A, B
(C: 6000 nM, A: 3200 nM, B: 770 nM)

* * *

# TARGET DESC: UniProtKB P07949
# Sequence (P07949 29-1114, species assumed): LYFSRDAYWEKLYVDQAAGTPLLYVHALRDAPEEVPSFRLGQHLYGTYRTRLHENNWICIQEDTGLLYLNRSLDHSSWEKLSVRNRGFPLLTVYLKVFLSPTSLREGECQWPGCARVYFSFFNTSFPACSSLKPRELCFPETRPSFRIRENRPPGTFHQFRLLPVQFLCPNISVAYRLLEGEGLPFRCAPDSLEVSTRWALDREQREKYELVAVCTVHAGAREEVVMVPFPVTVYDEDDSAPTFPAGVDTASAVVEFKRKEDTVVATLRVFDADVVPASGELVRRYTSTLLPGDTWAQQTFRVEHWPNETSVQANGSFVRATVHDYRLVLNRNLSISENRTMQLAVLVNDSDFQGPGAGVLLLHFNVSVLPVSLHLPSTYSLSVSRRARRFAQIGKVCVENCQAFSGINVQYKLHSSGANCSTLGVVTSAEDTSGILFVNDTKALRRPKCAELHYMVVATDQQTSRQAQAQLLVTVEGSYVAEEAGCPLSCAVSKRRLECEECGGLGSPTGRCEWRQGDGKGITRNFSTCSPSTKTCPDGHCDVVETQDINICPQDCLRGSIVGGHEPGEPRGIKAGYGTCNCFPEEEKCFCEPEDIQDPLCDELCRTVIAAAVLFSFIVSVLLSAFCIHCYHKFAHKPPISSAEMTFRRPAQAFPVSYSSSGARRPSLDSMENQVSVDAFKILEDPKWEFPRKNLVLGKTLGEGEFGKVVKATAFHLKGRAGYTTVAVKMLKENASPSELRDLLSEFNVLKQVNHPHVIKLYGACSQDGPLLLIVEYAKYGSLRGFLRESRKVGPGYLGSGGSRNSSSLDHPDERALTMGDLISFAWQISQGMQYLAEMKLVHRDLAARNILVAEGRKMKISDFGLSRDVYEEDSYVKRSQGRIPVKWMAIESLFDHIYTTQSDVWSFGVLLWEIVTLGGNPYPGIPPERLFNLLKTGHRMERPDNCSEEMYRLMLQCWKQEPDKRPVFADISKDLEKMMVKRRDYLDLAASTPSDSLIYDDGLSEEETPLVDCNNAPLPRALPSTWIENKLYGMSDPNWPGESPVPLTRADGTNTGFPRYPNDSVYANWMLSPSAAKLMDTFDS
# ASSAY TEXT: Enzymatic kinase assay (filter-binding / flashplate, 33P incorporation)
# Format: biochemical
# MEASUREMENT SETUP: enzymatic kinase selectivity
# Method: Two methods were used to analyze phosphorylated peptides and proteins produced by the listed tyrosine and serine/threonine-specific protein kinases: either using a filter-binding assay (FB), or using a flashplate assay (FP). The activities of protein kinases were assayed in the presence or absence of inhibitors, by measuring the incorporation of ^33P from [γ^33P]ATP into appropriate substrates. 96-well polypropylene microplates were used to assay the activity in the FB mode. […]
MEASUREMENT LABEL: IC50 (nM)

Use the examples below as a reference point.
COMPOUND: Nc1ncnc2c1c(-c1ccc3c(c1)OC(c1ccccc1)CC3)cn2C1CC(O)(CO)C1 (single isomer, unassigned)
TARGET DESC: UniProtKB P07949
ENDPOINT VALUE: 760

COMPOUND: CC(=O)N1CCN([C@H]2C[C@@H](n3cc(-c4ccc5c(c4)OC(c4ccccc4)CC5)c4c(N)ncnc43)C2)CC1 (relative stereo)
TARGET DESC: UniProtKB P07949
ENDPOINT VALUE: 410

I = Nc1ncnc2c1c(-c1ccc3c(c1)OC(c1ccccc1)C=C3)cn2[C@H]1C[C@@H](CN2CCS(=O)(=O)CC2)C1 (mixture of isomers)
II = CC(=O)NC[C@H]1C[C@@H](n2cc(-c3ccc4c(c3)OC(c3ccccc3)CC4)c3c(N)ncnc32)C1 (mixture of isomers)
Input: I or II : whose IC50 is greater? Please reply using the label of the selected record.
Output: II
